Examples of sequences with documented IC50 follow.
molecular target: recombinant HLA-DR401 (HLA-DRA1*01:01, HLA-DRB1*04:01) (Homo sapiens, UniProt P01903+P01911, A100K/A169T/F76Y/I96L/K127E/L162R/M171V/N62H/P40V/Q125Y/R42H/S133A/S149N/S66Y/V115G/V209L/W38E); construct: poly-histidine (C); made in house; host or cells: High Five (Hi5) insect cells, baculovirus (pAcGP67a); test: biochemical; format: binding; settings: estimated from two-point fluorescence polarization competition assay binding plots, HLA-DR401, N = 3 technical replicates per condition; read-out: IC50 (estimated)
Ends that are not written are not given here.

{"SEQUENCE_CONTENT": "AAWVRVVPMRAWEEG", "RELATION": "<", "IC50 [µM]": 0.01}
{"SEQUENCE_CONTENT": "AAVNDQLTVNSWEEG", "RELATION": "=", "IC50 [µM]": 4.5}
{"SEQUENCE_CONTENT": "AAYSVEPCYRMWEEG", "RELATION": "=", "IC50 [µM]": 0.037}
{"SEQUENCE_CONTENT": "AAFLGEWSLLSWEEG", "RELATION": "<", "IC50 [µM]": 0.01}
{"SEQUENCE_CONTENT": "AASFLSDSVMGWEEG", "RELATION": "<", "IC50 [µM]": 0.01}
{"SEQUENCE_CONTENT": "AALGLDLRAYVWEEG", "RELATION": "=", "IC50 [µM]": 7}
{"SEQUENCE_CONTENT": "AARYATSKSKGWEEG", "RELATION": "=", "IC50 [µM]": 9.52}

----------
molecular target: recombinant HLA-DR401 (HLA-DRA1*01:01, HLA-DRB1*04:01) (Homo sapiens, UniProt P01903+P01911, A100K/A169T/F76Y/I96L/K127E/L162R/M171V/N62H/P40V/Q125Y/R42H/S133A/S149N/S66Y/V115G/V209L/W38E); construct: poly-histidine (C); made in house; host or cells: High Five (Hi5) insect cells, baculovirus (pAcGP67a); assay: biochemical; type: binding; conditions: fluorescence polarization competition; […]; competitor 20 µM to 1.28 nM in five-fold dilutions; n = 3 replicates; read-out: Measured IC50
Ends that are not written are not given here.

{"SEQUENCE_CONTENT": "YWKQWLSLRNPILVF", "IC50": "2.51 µM"}

----------
molecular target: recombinant HLA-DR401 (HLA-DRA1*01:01, HLA-DRB1*04:01) (Homo sapiens, UniProt P01903+P01911, A100K/A169T/F76Y/I96L/K127E/L162R/M171V/N62H/P40V/Q125Y/R42H/S133A/S149N/S66Y/V115G/V209L/W38E); construct: poly-histidine (C); made in house; host or cells: High Five (Hi5) insect cells, baculovirus (pAcGP67a); assay: biochemical; type: binding; conditions: read-out: Measured IC50
pIC50: −log10 of the molar value.

{"SMILES_INPUT": "CSCC[C@H](NC(=O)[C@H](Cc1ccc(O)cc1)NC(=O)CNC(=O)[C@@H](N)CCCCN)C(=O)N[C@@H](Cc1ccccc1)C(=O)N[C@@H](CCC(=O)O)C(=O)N[C@@H](CO)C(=O)N[C@@H](CCCCN)C(=O)N[C@@H](CO)C(=O)N[C@@H](CCSC)C(=O)N[C@@H](CCCCN)C(=O)N[C@@H](CC(C)C)C(=O)N[C@@H](CCCNC(=N)N)C(=O)N[C@H](C(=O)N[C@@H](CCC(N)=O)C(=O)O)[C@@H](C)O", "RELATION": "=", "pIC50": 4.41}
{"SMILES_INPUT": "CSCC[C@H](NC(=O)[C@H](CCCNC(=N)N)NC(=O)[C@@H](N)CO)C(=O)N[C@@H](CCC(N)=O)C(=O)N[C@@H](Cc1ccccc1)C(=O)N[C@@H](CO)C(=O)N[C@@H](CO)C(=O)N[C@@H](Cc1ccccc1)C(=O)N[C@H](C(=O)N[C@H](C(=O)N[C@@H](CC(N)=O)C(=O)N[C@H](C(=O)N[C@@H](CCCNC(=N)N)C(=O)NCC(=O)N[C@@H](CO)C(=O)O)C(C)C)C(C)C)[C@@H](C)O", "RELATION": "=", "pIC50": 5.47}
{"SMILES_INPUT": "CSCC[C@H](NC(=O)[C@H](CO)NC(=O)[C@@H](NC(=O)[C@H](Cc1ccccc1)NC(=O)[C@H](CC(N)=O)NC(=O)[C@@H](NC(=O)[C@@H](N)C(C)C)C(C)C)C(C)C)C(=O)N[C@@H](CCC(=O)O)C(=O)N[C@@H](Cc1ccccc1)C(=O)N[C@@H](CO)C(=O)N[C@@H](CC(C)C)C(=O)N[C@H](C(=O)N[C@@H](CC(=O)O)C(=O)N1CCC[C@H]1C(=O)N[C@@H](CCCNC(=N)N)C(=O)O)[C@@H](C)O", "RELATION": "=", "pIC50": 5.10}
{"SMILES_INPUT": "CC(C)C[C@H](N)C(=O)N[C@@H](Cc1ccccc1)C(=O)N[C@@H](CCC(=O)O)C(=O)N[C@@H](CCCCN)C(=O)N[C@@H](Cc1ccccc1)C(=O)N[C@@H](Cc1ccccc1)C(=O)N1CCC[C@H]1C(=O)N[C@@H](CO)C(=O)N[C@@H](CO)C(=O)N[C@@H](CO)C(=O)N[C@@H](Cc1ccc(O)cc1)C(=O)N[C@@H](CCCNC(=N)N)C(=O)N[C@@H](CCCNC(=N)N)C(=O)N1CCC[C@H]1C(=O)N[C@H](C(=O)O)C(C)C", "RELATION": "<", "pIC50": 4.30}
